Experiment: Plasma concentration in patient with severe malaria at 12 g, iv for 30 mins via infusion pump
Type: ADME, organism-based
Details: human
Parameter: concentration at 0.5 h (µM)
Numbers only, in µM.

Task: Specify reported concentration at 0.5 h for the molecule shown: N=C(N)NCCC[C@H](N)C(=O)O [ARGININE]
Result: 1310
